assay explanation: clinical
condition summary: human, in vivo, inhaled or intranasal, 17.1 mg, AUC (plasma), 17.1 mg single dose inhalation; mean ± spread
quantity: AUC (ng·h/mL)
// units = ng·h/mL; emit number, no label

IN: Fill blank: measured AUC of the compound O=C([O-])c1cc(=O)c2c(OCC(O)COc3cccc4oc(C(=O)[O-])cc(=O)c34)cccc2o1.[Na+].[Na+] [Cromolyn] is ____.
OUT: 148

###

assay explanation: clinical
condition summary: human, in vivo, inhaled or intranasal, 34.2 mg, AUC (plasma), 34.2 mg double dose inhalation; mean ± spread
quantity: AUC (ng·h/mL)
Only the number, expressed in ng·h/mL, is required.

IN: Entry O=C([O-])c1cc(=O)c2c(OCC(O)COc3cccc4oc(C(=O)[O-])cc(=O)c34)cccc2o1.[Na+].[Na+] has what AUC?
OUT: 254

###

assay explanation: clinical
condition summary: human, in vivo, inhaled or intranasal, 17.1 mg, AUC (plasma), range, 17.1 mg single dose inhalation
quantity: AUC

IN: Need AUC, item O=C([O-])c1cc(=O)c2c(OCC(O)COc3cccc4oc(C(=O)[O-])cc(=O)c34)cccc2o1.[Na+].[Na+] [Cromolyn]
OUT: 44.7 to 287 ng·h/mL

###

assay explanation: clinical
condition summary: human, in vivo, inhaled or intranasal, 34.2 mg, AUC (plasma), range, 34.2 mg double dose inhalation
quantity: AUC

IN: Reported AUC, molecule O=C([O-])c1cc(=O)c2c(OCC(O)COc3cccc4oc(C(=O)[O-])cc(=O)c34)cccc2o1.[Na+].[Na+] [Cromolyn] : ____
OUT: 122 to 443 ng·h/mL
